biological target: UniProt:O60674
Sequence (O60674 whole entry): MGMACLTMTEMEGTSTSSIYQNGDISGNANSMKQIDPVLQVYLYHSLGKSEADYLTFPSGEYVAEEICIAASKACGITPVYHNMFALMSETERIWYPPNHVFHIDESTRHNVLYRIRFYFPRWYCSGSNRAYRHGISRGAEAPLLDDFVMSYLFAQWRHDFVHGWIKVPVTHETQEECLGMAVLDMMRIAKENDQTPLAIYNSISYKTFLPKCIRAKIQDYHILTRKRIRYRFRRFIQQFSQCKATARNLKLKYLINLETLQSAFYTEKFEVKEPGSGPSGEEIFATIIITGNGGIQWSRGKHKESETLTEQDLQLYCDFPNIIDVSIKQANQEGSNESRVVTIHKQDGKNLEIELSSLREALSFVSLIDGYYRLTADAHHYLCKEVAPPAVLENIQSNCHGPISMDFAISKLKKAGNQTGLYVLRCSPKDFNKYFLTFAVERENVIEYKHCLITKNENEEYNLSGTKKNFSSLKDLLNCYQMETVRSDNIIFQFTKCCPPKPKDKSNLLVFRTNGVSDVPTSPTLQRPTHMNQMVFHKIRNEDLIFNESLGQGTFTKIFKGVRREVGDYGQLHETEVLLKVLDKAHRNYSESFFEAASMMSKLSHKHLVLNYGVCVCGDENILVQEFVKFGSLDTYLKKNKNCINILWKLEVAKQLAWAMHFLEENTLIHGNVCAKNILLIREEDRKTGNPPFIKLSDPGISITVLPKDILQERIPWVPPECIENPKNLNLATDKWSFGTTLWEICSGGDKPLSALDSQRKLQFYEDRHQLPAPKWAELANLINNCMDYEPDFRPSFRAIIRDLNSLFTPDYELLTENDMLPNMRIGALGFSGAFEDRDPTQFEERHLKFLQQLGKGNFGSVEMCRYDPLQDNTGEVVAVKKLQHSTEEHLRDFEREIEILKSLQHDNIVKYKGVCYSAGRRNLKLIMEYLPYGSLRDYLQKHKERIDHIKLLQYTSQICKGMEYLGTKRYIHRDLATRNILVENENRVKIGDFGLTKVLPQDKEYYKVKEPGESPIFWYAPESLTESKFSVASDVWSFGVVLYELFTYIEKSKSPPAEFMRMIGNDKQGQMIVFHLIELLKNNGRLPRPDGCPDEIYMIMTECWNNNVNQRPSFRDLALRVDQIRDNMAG
Where a name gives a salt, the structure may show the parent alone.
measure: log10(IC50) (log10 of the value in nM)

[[record]]
molecule = "COc1ccc(-c2cc(Nc3cnccn3)nc(N[C@@H](C)c3ccc(F)cc3)c2)cc1 [Example 119, hydrochloride]"
readout_number = 1.45

[[record]]
molecule = "CC(C)n1cc(-c2cc(Nc3cnccn3)nc(N[C@@H](C)c3ccc(F)cc3)c2)cn1 [Example 37, hydrochloride]"
readout_number = 0.51

[[record]]
molecule = "C[C@H](Nc1nc(Nc2cnccn2)cc(-c2cnco2)n1)c1ccc(F)cc1 [Example 22, hydrochloride]"
readout_number = 0.20

[[record]]
molecule = "C[C@H](Nc1nc(Nc2cnccn2)cc(N2CC(N3CCN(C)CC3)C2)n1)c1ccc(F)cc1 [Example 224]"
readout_number = 0.04

[[record]]
molecule = "C[C@H](Nc1cc(N2CC(O)C2)cc(Nc2cnccn2)n1)c1ccc(F)cc1 [Example 202, hydrochloride]"
readout_number = 0.67

[[record]]
molecule = "C[C@H](Nc1cc(-c2cnn(C)c2)cc(Nc2cnccn2)n1)c1ccc(F)cc1 [Example 30, maleate]"
readout_number = 0.18

[[record]]
molecule = "C[C@H](Nc1nc(Nc2cnccn2)cc(-c2ccc(C(N)=O)cc2)n1)c1ccc(F)cc1 [Example 80, hydrochloride]"
readout_number = 0.04

[[record]]
molecule = "C[C@H](Nc1nc(Nc2cnccn2)cc(-c2cc[nH]n2)n1)c1ccc(F)cc1 [Example 24, hydrochloride]"
readout_number = 0.04

[[record]]
molecule = "C[C@H](Nc1nc(Nc2cnccn2)cc(-c2nccs2)n1)c1ccc(F)cc1 [Example 54]"
readout_number = 1.34

[[record]]
molecule = "C[C@H](Nc1nc(Nc2cnccn2)cc(-c2cn[nH]c2)n1)c1ccc(F)cc1 [Example 34, maleate]"
readout_number = -0.29

[[record]]
molecule = "C[C@H](Nc1cc(-c2ccc(C(N)=O)cc2)cc(Nc2cnccn2)n1)c1ccc(F)cc1 [Example 115, dihydrochloride]"
readout_number = 0.36

[[record]]
molecule = "C[C@H](Nc1nc(Nc2cnccn2)cc(N2CC(O)(C(F)(F)F)C2)n1)c1ccc(F)cc1 [Example 192, hydrochloride]"
readout_number = 0.28

[[record]]
molecule = "C[C@H](Nc1nc(Nc2cnccn2)cc(OCCN(C)C)n1)c1ccc(F)cc1 [Example 89, dihydrochloride]"
readout_number = 0.58

[[record]]
molecule = "C[C@H](Nc1nc(Nc2cnccn2)cc(N2CC(N(C)C)C2)n1)c1ccc(F)cc1 [Example 220]"
readout_number = -0.01

[[record]]
molecule = "COC1(C)CN(c2cc(Nc3cnccn3)nc(N[C@@H](C)c3ccc(F)cc3)c2)C1 [Example 213, hydrochloride]"
readout_number = 0.51

[[record]]
molecule = "C[C@H](Nc1nc(Nc2cnccn2)cc(-c2cccc(C#N)c2)n1)c1ccc(F)cc1 [Example 81]"
readout_number = 0.75

[[record]]
molecule = "CC(C)C1(O)CN(c2cc(Nc3cnccn3)nc(N[C@@H](C)c3ccc(F)cc3)c2)C1 [Example 204, hydrochloride]"
readout_number = 0.91

[[record]]
molecule = "C[C@H](Nc1nc(Nc2cnccn2)cc(N2CCC(O)CC2)n1)c1ccc(F)cc1 [Example 71, hydrochloride]"
readout_number = -0.14

[[record]]
molecule = "CC(=O)N[C@@H]1CCN(c2cc(Nc3cnccn3)nc(N[C@@H](C)c3ccc(F)cc3)n2)C1 [Example 27, hydrochloride]"
readout_number = -0.28

[[record]]
molecule = "C[C@H](Nc1nc(Nc2cnccn2)cc(N2CCC[C@@H]2CO)n1)c1ccc(F)cc1 [Example 70, hydrochloride]"
readout_number = 0.18

[[record]]
molecule = "C[C@H](Nc1nc(Nc2cnccn2)cc(-c2ccoc2)n1)c1ccc(F)cc1 [Example 82, hydrochloride]"
readout_number = 0.23

[[record]]
molecule = "Cc1cc(Nc2cnccn2)nc(N[C@@H](C)c2ccc(F)cc2)c1 [Example 121, hydrochloride]"
readout_number = 0.43

[[record]]
molecule = "C[C@H](Nc1cc(-c2cccnc2)cc(Nc2cnccn2)n1)c1ccc(F)cc1 [Example 5, hydrochloride]"
readout_number = -0.21

